tested on: HepG2; experiment: Antiproliferation activity against human HepG2 cells assessed as cell growth inhibition measured after 72 hrs by MTT assay; format: functional
experimentalReadout: GI50 (nM)
# output: bare number, implied unit nM

As a guide, the following entries are already answered.
| entrySmiles | readoutValue |
| --- | --- |
| CCOc1cc2c(cc1OCCCO)-c1c(c(Nc3cccc(C(=O)NC)c3)nn1C)C2 | 2350 |
| COc1ccc(/C=C\c2cc(OC)c(OC)c(OC)c2)cc1O | 6.1 |
| CCOc1cc2c(cc1OCC(N)=O)-c1c(c(Nc3cccc(C(=O)NC)c3)nn1C)C2 | 642 |

Ask: Entry CCOc1cccc(Nc2nn(C)c3c2Cc2cc(OCC)c(OCC(=O)O)cc2-3)c1 has what GI50?
Reply: 1640

Ask: Report GI50 for CCOc1cc2c(cc1OCC(N)=O)-c1c(c(Nc3cccc(C(=O)CC)c3)nn1C)C2 please.
Reply: 9.2

====

compounds and their reported GI50
tested on: HepG2; experiment: Antiproliferation activity against human HepG2 cells assessed as cell growth inhibition measured after 72 hrs by MTT assay; type: functional
Provide a numeric answer, followed by its unit.

| entrySmiles | GI50 |
| --- | --- |
| CCOC(=O)c1cccc(Nc2nn(C)c3c2Cc2cc(OCC)c(OCC(N)=O)cc2-3)c1 | 3.4 nM |

Ask: Given CCOc1cc2c(cc1OCCCO)-c1c(c(Nc3cccc(C(=O)OC(C)C)c3)nn1C)C2 , state its recorded GI50.
Reply: 36.7 nM

Ask: Return reported GI50; argument: CCNc1cccc(Nc2nn(C)c3c2Cc2cc(OCC)c(OCC(N)=O)cc2-3)c1
Reply: 107 nM

Ask: So what's the measured GI50 for this one? CCOc1cc2c(cc1OCCCO)-c1c(c(Nc3cccc(C(=O)CC)c3)nn1C)C2
Reply: 13.6 nM

Ask: Looking for the measured GI50 of CCOc1cc2c(cc1OCC(=O)NC)-c1c(c(Nc3cccc(C(=O)OC)c3)nn1C)C2 , can you help?
Reply: 10.2 nM

====

Listed here: items and their measured GI50.
system: HepG2; test: Antiproliferation activity against human HepG2 cells assessed as cell growth inhibition measured after 72 hrs by MTT assay; assay type: functional
Field format: number, assumed nM, no unit text.

// worked examples, GI50 included
| entrySmiles | readoutValue |
| --- | --- |
| CCCCOc1cc2c(cc1OCC(N)=O)-c1c(c(Nc3cccc(OCC)c3)nn1C)C2 | 2760 |
| CCOc1cc2c(cc1OCC(N)=O)-c1c(c(Nc3cccc(C(=O)OC(C)C)c3)nn1C)C2 | 25.3 |
| CCOc1cccc(Nc2nn(C)c3c2Cc2cc(OCC)c(OCCCN)cc2-3)c1 | 2.4 |
| CCOC(=O)c1cccc(Nc2nn(C)c3c2Cc2cc(OCC)c(OCCCO)cc2-3)c1 | 3.3 |
| CCOc1cc2c(cc1OCCCN)-c1c(c(Nc3cccc(C(=O)CC)c3)nn1C)C2 | 2.1 |
| CCOc1cccc(Nc2nn(C)c3c2Cc2cc(OCC)c(OCCCO)cc2-3)c1 | 15.7 |
| CCOc1cc2c(cc1OCC(N)=O)-c1c(c(Nc3cccc(C(=O)OC)c3)nn1C)C2 | 4.3 |

Ask: For HepG2, provide GI50 of CCOc1cccc(Nc2nn(C)c3c2Cc2cc(OCc4ccc(OC)cc4)c(OCC(N)=O)cc2-3)c1 please.
Reply: 3070

====

Measured GI50 at 72 h, listed per entry.
experiment: Cytotoxicity against human L02 cells assessed as assessed as cell growth inhibition measured after 72 hrs by MTT assay; format: cell-based
Your answer should be a plain number; it is taken to be in nM.

Known results for compounds:
| entrySmiles | readoutValue |
| --- | --- |
| COc1ccc(/C=C\c2cc(OC)c(OC)c(OC)c2)cc1O | 333 |
| CCOc1cccc(Nc2nn(C)c3c2Cc2cc(OCC)c(OCCCN)cc2-3)c1 | 284 |

Read the next record carefully.
Ask: // query GI50 at 72 h value for entry CC(=O)O[C@H]1C(=O)[C@@]2(C)[C@H]([C@H](OC(=O)c3ccccc3)[C@]3(O)C[C@H](OC(=O)[C@H](O)[C@@H](NC(=O)c4ccccc4)c4ccccc4)C(C)=C1C3(C)C)[C@]1(OC(C)=O)CO[C@@H]1C[C@@H]2O
Reply: 30.8

====

In this section we review reported logD at 10 h values for a set of molecules.
assay: Lipophilicity, log P of the compound in DMSO and n-octanol at pH 7.4 incubated for 10 hrs under stirred condition by HPLC analysis; format: physicochemical; conditions: n-octanol / aqueous phase pH 7.4, pH 7.4
Keep the answer to the number alone.

| entrySmiles | logD at 10 h |
| --- | --- |
| CCOc1cccc(Nc2nn(C)c3c2Cc2cc(OCC)c(OCC(N)=O)cc2-3)c1 | 3.18 |

Ask: Suppose we examine the molecule CCOc1cccc(Nc2nn(C)c3c2Cc2cc(OCC)c(OCCCN)cc2-3)c1 ; what logD at 10 h value has been reported?
Reply: 1.7

====

Reported GI50 values for a set of compounds
system: HepG2; experiment: Antiproliferation activity against human HepG2 cells assessed as cell growth inhibition measured after 72 hrs by MTT assay; assay type: functional
Please reply with the bare figure in nM and do not write the unit itself.

| entrySmiles | measuredTarget | experimentalReadout | unitsOfMeasure | readoutValue |
| --- | --- | --- | --- | --- |
| CCOc1ccc(Nc2nn(C)c3c2Cc2cc(OCC)c(OCC(N)=O)cc2-3)cc1 | HepG2 | GI50 | nM | 1910 |
| CCOc1cc2c(cc1OCCCO)-c1c(c(Nc3cccc(C(=O)OC)c3)nn1C)C2 | HepG2 | GI50 | nM | 7.1 |

Ask: Which GI50 is listed for CCCOc1cc2c(cc1OCC)Cc1c(Nc3cccc(OCC)c3)nn(C)c1-2 ?
Reply: 397

Ask: Please report the recorded GI50 for CCOc1cccc(Nc2nn(C)c3c2Cc2cc(OCC)c(OCC(N)=O)cc2-3)n1 .
Reply: 17.1

Ask: Report GI50 for CCOc1cc2c(cc1OCC(=O)NC)-c1c(c(Nc3cccc(C#N)c3)nn1C)C2 please.
Reply: 97.3

====

test system: HepG2; experiment: Antiproliferation activity against human HepG2 cells assessed as cell growth inhibition measured after 72 hrs by MTT assay; assay type: functional
experimentalReadout: log10 GI50 (log10 of the value in nM)
Answers are given as log10 of GI50 in nM.

Guide cases for log10 GI50, answers given:
| entrySmiles | measuredTarget | log10 GI50 |
| --- | --- | --- |
| CCOc1cc2c(cc1OCCCN)-c1c(c(Nc3cccc(C#N)c3)nn1C)C2 | HepG2 | 0.58 |
| CCOc1cc2c(cc1OCC(N)=O)-c1c(c(Nc3cccc(C#N)c3)nn1C)C2 | HepG2 | 1.83 |
| CCOc1cccc(Nc2nn(C)c3c2Cc2cc(OCC)c(OCCCO)cc2-3)n1 | HepG2 | 1.19 |
| CCOc1cccc(Nc2nn(C)c3c2Cc2cc(OCC)c(OCCCNC(C)=O)cc2-3)c1 | HepG2 | 2.56 |
| CCOc1cccc(Nc2nn(C)c3c2Cc2cc(O)c(OCC(N)=O)cc2-3)c1 | HepG2 | 3.73 |
| CCOc1cccc(Nc2nn(C)c3c2Cc2cc(OC)c(OCC(N)=O)cc2-3)c1 | HepG2 | 1.18 |
| CCCOc1cc2c(cc1OCC(N)=O)-c1c(c(Nc3cccc(OCC)c3)nn1C)C2 | HepG2 | 1.75 |
| CCOc1cccc(Nc2nn(C)c3c2Cc2cc(OCC)c(OCC(N)=O)cc2-3)c1 | HepG2 | 0.93 |
| CCOc1cc2c(cc1OCCCO)-c1c(c(Nc3cccc(C#N)c3)nn1C)C2 | HepG2 | 1.63 |

Moving on to the next compound.
Ask: Query (compound): CCCOc1cc2c(cc1OCC(N)=O)Cc1c(Nc3cccc(OCC)c3)nn(C)c1-2 ; field requested: log10 GI50
Reply: 3.29
